Across several studies, compounds have been characterized by their IC50 on Nitric oxide synthase 3 (Homo sapiens); a selection follows.
# TARGET_SYSTEM: Nitric oxide synthase 3 (Homo sapiens)
# Sequence (P29474 whole entry): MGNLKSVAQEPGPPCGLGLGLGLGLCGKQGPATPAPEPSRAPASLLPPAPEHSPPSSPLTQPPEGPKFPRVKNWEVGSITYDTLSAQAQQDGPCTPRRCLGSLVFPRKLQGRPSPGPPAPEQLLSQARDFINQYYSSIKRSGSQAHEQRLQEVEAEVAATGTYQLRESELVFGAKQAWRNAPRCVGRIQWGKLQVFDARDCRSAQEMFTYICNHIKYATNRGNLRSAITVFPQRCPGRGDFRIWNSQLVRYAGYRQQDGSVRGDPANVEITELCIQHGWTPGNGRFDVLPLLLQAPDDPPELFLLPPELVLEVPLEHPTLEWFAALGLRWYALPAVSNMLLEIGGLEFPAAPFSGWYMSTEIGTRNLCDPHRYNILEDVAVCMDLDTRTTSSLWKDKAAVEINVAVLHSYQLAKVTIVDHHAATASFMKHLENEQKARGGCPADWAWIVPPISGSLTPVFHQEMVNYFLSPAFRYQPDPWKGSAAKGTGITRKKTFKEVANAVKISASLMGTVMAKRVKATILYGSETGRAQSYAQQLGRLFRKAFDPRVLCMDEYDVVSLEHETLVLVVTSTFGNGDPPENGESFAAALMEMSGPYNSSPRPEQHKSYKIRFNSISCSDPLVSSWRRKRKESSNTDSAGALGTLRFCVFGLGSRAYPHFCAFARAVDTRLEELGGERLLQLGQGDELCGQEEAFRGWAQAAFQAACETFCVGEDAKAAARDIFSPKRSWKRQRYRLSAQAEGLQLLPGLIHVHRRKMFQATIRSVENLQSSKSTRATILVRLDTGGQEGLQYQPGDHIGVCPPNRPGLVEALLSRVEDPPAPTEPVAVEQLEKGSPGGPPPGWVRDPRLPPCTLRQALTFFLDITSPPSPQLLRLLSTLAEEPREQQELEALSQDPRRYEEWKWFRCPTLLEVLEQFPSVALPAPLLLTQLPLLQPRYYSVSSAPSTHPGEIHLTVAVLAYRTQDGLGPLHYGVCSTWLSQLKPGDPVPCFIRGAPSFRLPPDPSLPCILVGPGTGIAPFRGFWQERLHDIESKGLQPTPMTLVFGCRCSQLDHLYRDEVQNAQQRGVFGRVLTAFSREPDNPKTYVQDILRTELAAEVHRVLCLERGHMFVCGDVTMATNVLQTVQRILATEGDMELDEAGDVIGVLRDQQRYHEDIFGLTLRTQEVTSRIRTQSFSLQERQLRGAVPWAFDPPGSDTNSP
Answers are plain numbers, in µM.

CCc1cc(-c2cccc(N)n2)c(OC)cc1OCCN(C)C: 3.71

For each of the compounds below, state IC50.
1. CNCc1ccc2c(c1)N=C(N)[C@]1(F)CCC[C@H]21
2. COCCOc1ccnc2[nH]c(CCc3cc(OC)ccn3)nc12
3. CS/C(=N/N)NCCC[C@H](N)C(=O)O
4. CC1CN=C(N)C1C (stereo not drawn)
5. COc1ccc2c(c1)N=C(N)[C@@H]1CCC[C@H]21
6. CCCCC1N=C(N)CC1C (stereo not drawn)
7. N=C(Nc1ccc2sc(NCCN3CCOCC3)nc2c1)c1cccs1
8. CCc1cc(-c2cccc(N)n2)c(OC)cc1CN(C)C

Ans:
1. 66
2. 204
3. 752
4. 8.7
5. 4.1
6. 23.6
7. 12
8. 8.83
